inhibition at 10 µM listing for selected molecules.
System: KM 12
Assay: NCI 60 antitumor screening (single dose)
Assay type: cell-based
Conditions: Homo sapiens, KM12; KM 12 (colon cancer), single dose 10 μM; read-out: Growth inhibition percentage (GI %)
A bare number is not enough; add the unit after it.

# example entries with known answers
[
  {
    "smiles": "Brc1cccc(/C=N/Nc2nc(N/N=C/c3cccc(Br)c3)nc(N3CCOCC3)n2)c1",
    "inhibition at 10 µM": "69.7%"
  },
  {
    "smiles": "Brc1cccc(/C=N/Nc2nc(N/N=C/c3cccc(Br)c3)nc(N3CCCCC3)n2)c1",
    "inhibition at 10 µM": "-6.72%"
  },
  {
    "smiles": "Oc1ccc(/C=N/Nc2nc(N/N=C/c3ccc(O)c(O)c3)nc(N3CCOCC3)n2)cc1O",
    "inhibition at 10 µM": "-1.91%"
  }
]

Field: next molecule
Q) Quick check: inhibition at 10 µM on KM 12, item C(=N\Nc1nc(N/N=C/c2ccc3c(c2)OCO3)nc(N2CCCCC2)n1)/c1ccc2c(c1)OCO2 ?
A) 13.8%

* * *

inhibition at 10 µM listing for selected molecules.
Tested on: SF-539
Experiment: NCI 60 antitumor screening (single dose / five doses)
Type: cell-based
Details: Homo sapiens; SF-539 (CNS cancer), single dose 10 μM; read-out: Growth inhibition percentage (GI %)

[
  {
    "smiles": "Brc1cccc(/C=N/Nc2nc(N/N=C/c3cccc(Br)c3)nc(N3CCOCC3)n2)c1",
    "observedMeasurement": "43.6%"
  },
  {
    "smiles": "CN(C)c1ccc(/C=N/Nc2nc(N/N=C/c3ccc(N(C)C)cc3)nc(N3CCCCC3)n2)cc1",
    "observedMeasurement": "112%"
  },
  {
    "smiles": "Oc1ccccc1/C=N/Nc1nc(N/N=C/c2ccccc2O)nc(N2CCOCC2)n1",
    "observedMeasurement": "48.2%"
  }
]

Field: next molecule
Q) Report inhibition at 10 µM for Oc1ccc(/C=N/Nc2nc(N/N=C/c3ccc(O)c(O)c3)nc(N3CCOCC3)n2)cc1O please.
A) -3.18%

* * *

inhibition at 10 µM listing for selected compounds.
Tested on: KM 12
Assay: NCI 60 antitumor screening (single dose)
Format: cell-based
Details: Homo sapiens, KM12; KM 12 (colon cancer), single dose 10 μM; read-out: Growth inhibition percentage (GI %)
Supply the numeric figure in %, leaving out any unit text.

[
  {
    "compound": "O=[N+]([O-])c1cc(/C=N/Nc2nc(N/N=C/c3ccc(Cl)c([N+](=O)[O-])c3)nc(N3CCOCC3)n2)ccc1Cl",
    "inhibition at 10 µM [%]": 6.79
  },
  {
    "compound": "Brc1ccccc1/C=N/Nc1nc(N/N=C/c2ccccc2Br)nc(N2CCCCC2)n1",
    "inhibition at 10 µM [%]": 2
  },
  {
    "compound": "Fc1cccc(Cl)c1/C=N/Nc1nc(N/N=C/c2c(F)cccc2Cl)nc(N2CCCCC2)n1",
    "inhibition at 10 µM [%]": 89.2
  },
  {
    "compound": "O=C1Nc2ccc(Cl)cc2/C1=N\\Nc1nc(N/N=C2/C(=O)Nc3ccc(Cl)cc32)nc(N2CCOCC2)n1",
    "inhibition at 10 µM [%]": 18.8
  },
  {
    "compound": "Fc1cccc(Cl)c1/C=N/Nc1nc(N/N=C/c2c(F)cccc2Cl)nc(N2CCOCC2)n1",
    "inhibition at 10 µM [%]": 18.9
  }
]

Q) Quick check: inhibition at 10 µM on KM 12, item Brc1ccccc1/C=N/Nc1nc(N/N=C/c2ccccc2Br)nc(N2CCOCC2)n1 ?
A) 10.9

Q) Quick check: inhibition at 10 µM on KM 12, item Fc1cccc(/C=N/Nc2nc(N/N=C/c3cccc(F)c3)nc(N3CCCCC3)n2)c1 ?
A) 17.9

Q) Quick check: inhibition at 10 µM on KM 12, item Oc1ccc(/C=N/Nc2nc(N/N=C/c3ccc(O)c(O)c3)nc(N3CCCCC3)n2)cc1O ?
A) -0.29

Where these numbers come from: paper PMC9848300
